# Target Entity: furin, P09958;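 note: purified furin at 1:10 enzyme:substrate in 50 mM HEPES pH 7.5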
# Sequence (P09958 whole entry): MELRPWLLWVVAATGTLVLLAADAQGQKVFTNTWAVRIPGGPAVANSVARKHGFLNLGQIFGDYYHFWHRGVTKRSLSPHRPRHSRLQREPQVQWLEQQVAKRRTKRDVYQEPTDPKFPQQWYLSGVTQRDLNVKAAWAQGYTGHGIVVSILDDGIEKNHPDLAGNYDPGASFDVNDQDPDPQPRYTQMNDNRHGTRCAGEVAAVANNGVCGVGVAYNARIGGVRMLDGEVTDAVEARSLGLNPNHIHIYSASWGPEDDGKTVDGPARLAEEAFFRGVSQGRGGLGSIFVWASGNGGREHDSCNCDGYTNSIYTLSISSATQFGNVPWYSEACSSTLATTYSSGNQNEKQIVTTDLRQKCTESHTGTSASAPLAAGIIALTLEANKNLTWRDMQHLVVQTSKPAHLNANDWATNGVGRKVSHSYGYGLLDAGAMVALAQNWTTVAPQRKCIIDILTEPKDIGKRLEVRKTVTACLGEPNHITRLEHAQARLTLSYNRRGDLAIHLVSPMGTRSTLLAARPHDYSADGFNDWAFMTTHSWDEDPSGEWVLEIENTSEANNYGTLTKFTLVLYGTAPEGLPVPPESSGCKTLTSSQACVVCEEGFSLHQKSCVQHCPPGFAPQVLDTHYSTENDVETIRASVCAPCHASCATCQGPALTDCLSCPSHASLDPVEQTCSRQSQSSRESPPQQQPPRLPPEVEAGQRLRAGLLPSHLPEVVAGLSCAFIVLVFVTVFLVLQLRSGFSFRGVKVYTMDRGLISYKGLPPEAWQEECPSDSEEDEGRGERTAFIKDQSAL
# Test Details: furin cleavage Z-score vs untreated control; higher = more cleavage, active = 3.5 or more, inactive = 1 or less, 8 variable residues between constant flanks
# Measurement Conditions: 15 min
Some of the results follow. How many sequences the whole screen found active is unknown.
Experimental Endpoint: furin cleavage Z-score
Answers are plain numbers.

CALTVTQLLRAGNASASA [HC1136]    1.28
CARRRRSSVFAGNASASA [FS-2599]    7.07
CARARRTLGHAGNASASA [FS-1684]    8.11
CARKRRQSEGAGNASASA [FS-1733]    12.6
CASKSRIKKDAGNASASA [FS-91]    6.56
CARSKRPPLVAGNASASA [FS-3085]    1.04
CALIPRVRRAAGNASASA [FS-608]    10.3
CAQKKRGGTAAGNASASA [WN2]    -0.389
CARALRLVDGAGNASASA [FS-2410]    -0.615
CAKTRRSVDGAGNASASA [FS-2248]    7.09

Give me furin cleavage Z-score for each of these sequences, listed below.
1. CARSELSPLLAGNASASA [HC490]
2. CAEVCTSTWVAGNASASA [HC2200]
3. CAGEVPSTEDAGNASASA [HC1096]
4. CALIFCHSKKAGNASASA [HC856]
5. CASVLCECYDAGNASASA [HC918]
6. CARRRRSSKRAGNASASA [FS-2518]
7. CARARRTTIYAGNASASA [FS-3151]

OUTPUT:
-1.17
-0.375
-0.136
-0.736
-1.47
5.93
1.46

// each sequence listed below needs its furin cleavage Z-score
1. CARSVRARLLAGNASASA [HC1623]
2. CARSKRRHRTAGNASASA [FS-3086]

OUTPUT:
1. 0.839
2. 4.65

Ref: the supplement of paper PMC3545927
